Test system: L1210 leukemia ip in BDF1 mice, survival T/C
MEASUREMENT DESCRIPTION: NCI In Vivo Anticancer Drug Screen. Data for tumor model L1210 Leukemia (intraperitoneal) in B6D2F1 (BDF1) mice
TEST PARAMETERS: endpoint: mean survival time; dose: 400.0 mg/kg/injection; schedule: Q04DX003 (ip); vehicle: Klucel (hydroxypropylcellulose) (HPC); higher = longer survival
Inconclusive results and toxic doses are left out.
Let's look at some molecules and their measured T/C.

// below: answered molecules
In [3]: df
Out[3]:
                                   molecule      result_value
0  O=P(NC12CC3CC(CC(C3)C1)C2)(Oc1ccccc1)Oc1ccccc1   87 % of control
1  CCCCCCCN(CCCCCCC)CC(O)c1cc2ccccc2c2cnccc12 (stereo not given)   93 % of control
2         CCOC(=O)c1c(C)[nH]c(C)c1-c1ccccc1  105 % of control
3   CCOC(=O)C(C(=O)OCC)C1c2ccccc2-c2ccccc21  100 % of control

What value of T/C has been recorded for this entry: CC(=O)Oc1cc(-c2ccccc2)c2oc(C)nc2c1-c1ccccc1
93 % of control

Next up: CC1c2c(ccc3c2CCC=C3)CCC1CC1=CCCc2ccc3ccccc3c21 (stereo not given)
95 % of control

###

System: L1210 leukemia ip in BDF1 mice, survival T/C
MEASUREMENT DESCRIPTION: NCI In Vivo Anticancer Drug Screen. Data for tumor model L1210 Leukemia (intraperitoneal) in B6D2F1 (BDF1) mice
TEST PARAMETERS: endpoint: mean survival time; dose: 100.0 mg/kg/injection; schedule: Q01DX001 (ip); vehicle: saline with Tween-80; higher = longer survival
Toxic doses and inconclusive results are not listed.
// T/C lookup, one value per entry

Answered examples (4):
>>> print(df.to_string())
                                   compound  recorded_metric      result_value
0  c1ccc(-c2c(-c3ccc4c(c3)OCO4)c(-c3ccc4c(c3)OCO4)c(-c3ccccc3)c3ccccc23)cc1              T/C   92 % of control
1                       OCc1cscc1-c1cscc1CO              T/C   97 % of control
2  Cc1ccc(Nc2cc(Br)c(N)c3c2C(=O)c2ccccc2C3=O)cc1              T/C  103 % of control
3            O=C(NO)Nc1ccc([N+](=O)[O-])cc1              T/C   97 % of control

Which T/C value is on record for CCCCC1C2CCCCC2CC2CCCCC21 (stereo unspecified) ?
98 % of control

Next: CC(=O)NC(CO)C(O)c1ccc([N+](=O)[O-])cc1 (stereo unspecified)
101 % of control

###

// reported T/C for each item listed
System: L1210 leukemia ip in BDF1 mice, survival T/C
MEASUREMENT DESCRIPTION: NCI In Vivo Anticancer Drug Screen. Data for tumor model L1210 Leukemia (intraperitoneal) in B6D2F1 (BDF1) mice
TEST PARAMETERS: endpoint: mean survival time; dose: 50.0 mg/kg/injection; schedule: Q04DX003 (ip); vehicle: Klucel (hydroxypropylcellulose) (HPC); higher = longer survival
Experimental: The antitumor activity of compounds was measured in mice bearing transplantable tumors. Survival or tumor size were measured and the results are expressed as the measurement made in the treated group (T) divided by the measurement made in the vehicle treated control group (C). The tumor model used in this assay is L1210 Leukemia (intraperitoneal) in B6D2F1 (BDF1) mice
Inconclusive results and toxic doses are left out.

                                   molecule  recorded_metric      result_value
0  CCN(CC)CCCC(C)Nc1ncnc(N)c1N (stereo not given)              T/C  102 % of control
1              O=C(CBr)Nc1ccc(C(=O)O)c(O)c1              T/C   92 % of control
2  COC(c1ccccc1)C(OC)c1ccccc1 (stereo not given)              T/C   96 % of control
3          C[N+](C)(C)C(=Nc1ccccc1)c1ccccc1              T/C   94 % of control
4  COc1ccc2c3c1OC1C4(CCC5C(C2)N(CC2CC2)CCC351)OCCO4 (stereo not given)              T/C  101 % of control

Sample O=C1C(Cl)=C(Cl)C(Cl)(Cl)C1(Cl)Cl — what was its T/C?
100 % of control

Also CC1(CCCc2ccc([N+](=O)[O-])cc2)N=C(N)N=C(N)N1c1ccccc1 (stereo not given) ?
100 % of control

// next record COc1ccc(C(=O)CBr)c(OC)c1C
96 % of control

Queued: NC(=O)N/N=C1/CCN2CCCc3cccc1c32
97 % of control

Please give the result for O=C(O)/C=C/Sc1ccccc1 too.
102 % of control

Continue with CSc1ncnc2c1ncn2C1OC(CO)C(O)OC1O (stereo not given)
109 % of control

Now consider CCCCN(CCCC)CCCNC(=O)OCC .
100 % of control

Also check CCOC(=O)c1[nH]c(C)c(CC(C(=O)OCC)C(=O)OCC)c1C
93 % of control

Thanks! And COc1ccc(OC)c(NC(=O)Oc2ccccc2C(N)=O)c1 ?
95 % of control

Try CCOC(=O)C(OCc1ccccc1)(C(=O)N1CCCCC1=O)C(C)C (stereo not given) next.
97 % of control
